Target: T1, extracellular domain of human ILT3 (huILT3-ECD) (human, UniProt Q8NHJ6 22-259)
T1 construct: also called human ILT3-ECD
Assay: SPR (Biacore), antibody captured via anti-Fc on CM5 chip, soluble ILT3-ECD injected
Measured Parameter: koff (s⁻¹)
Write the value in s⁻¹ as a bare number.

Data request, read-out koff, for Hz48A6 C2/C2 (antibody, V domains shown) VH: EVQLVESGGGLMQPGGSLRLSCAASGFTFSSYGMSWVRQAPGKGLEWVATISSGGTYTFYPDSVKGRFTISRDNSKNTLYLQMNSLRAEDTAVYYCARRGWLLHYYAMDYWGQGTLVTVSS VL: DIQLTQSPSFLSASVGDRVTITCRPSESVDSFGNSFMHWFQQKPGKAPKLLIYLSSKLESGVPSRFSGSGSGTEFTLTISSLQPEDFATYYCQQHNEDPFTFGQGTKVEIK
0.000752

Param item: 48A6 chimera (antibody, V domains shown, also called parental chimeric 48A6) VH: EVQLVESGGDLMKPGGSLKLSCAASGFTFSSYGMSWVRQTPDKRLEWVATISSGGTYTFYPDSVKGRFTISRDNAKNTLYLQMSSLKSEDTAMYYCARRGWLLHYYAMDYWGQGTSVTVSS VL: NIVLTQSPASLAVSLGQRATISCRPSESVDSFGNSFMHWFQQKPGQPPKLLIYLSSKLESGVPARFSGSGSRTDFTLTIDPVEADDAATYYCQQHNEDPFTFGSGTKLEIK
0.000868

Param item: Hz45G10 B1/A4 (antibody, V domains shown) VH: EVQLVESGGGLVKPGGSLRLSCAASGFTFSDYGMHWVRQAPGKGLEWVSYIFSGSSTIYYADTVKGRFTISRDNAKNSLYLQMNSLRAEDTAVYYCARADGRGAMDYWGQGTLVTVSS VL: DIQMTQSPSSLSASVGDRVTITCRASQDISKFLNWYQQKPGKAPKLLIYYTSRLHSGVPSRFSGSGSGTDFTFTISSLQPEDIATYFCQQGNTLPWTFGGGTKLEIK
0.00026

Param item: 45G10 chimera (antibody, V domains shown, also called parental chimeric 45G10) VH: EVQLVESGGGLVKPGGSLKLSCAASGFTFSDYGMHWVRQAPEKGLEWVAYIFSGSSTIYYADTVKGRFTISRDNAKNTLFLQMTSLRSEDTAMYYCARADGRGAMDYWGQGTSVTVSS VL: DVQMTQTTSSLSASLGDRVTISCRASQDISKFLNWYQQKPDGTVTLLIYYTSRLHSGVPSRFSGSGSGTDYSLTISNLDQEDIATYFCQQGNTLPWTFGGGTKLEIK
0.00034

Param item: Hz48A6 C1/C2 (antibody, V domains shown) VH: EVQLVESGGGLVQPGGSLRLSCAASGFTFSSYGMSWVRQAPGKGLEWVATISSGGTYTFYPDSVKGRFTISRDNSKNTLYLQMNSLRAEDTAVYYCARRGWLLHYYAMDYWGQGTLVTVSS VL: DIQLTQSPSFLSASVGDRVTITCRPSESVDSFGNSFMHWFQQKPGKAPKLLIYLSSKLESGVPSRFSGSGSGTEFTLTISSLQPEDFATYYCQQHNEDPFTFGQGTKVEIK
0.000705

Param item: Hz48A6 B0/C2 (antibody, V domains shown) VH: EVQLVESGGGLVQPGGSLRLSCAASGFTFSSYGMSWVRQAPGKGLEWVATISSGGTYTFYPDSVKGRFTISRDNAKNSLYLQMNSLRAEDTAVYYCARRGWLLHYYAMDYWGQGTSVTVSS VL: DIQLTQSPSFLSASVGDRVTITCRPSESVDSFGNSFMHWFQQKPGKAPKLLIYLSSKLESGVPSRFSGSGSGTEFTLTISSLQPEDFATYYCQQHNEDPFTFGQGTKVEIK
0.000784

Param item: Hz48A6 C0/C2 (antibody, V domains shown) VH: EVQLVESGGGLVQPGGSLRLSCAASGFTFSSYGMSWVRQAPGKGLEWVGTISSGGTYTFYPDSVKGRFTISRDNSKNTLYLQMNSLRAEDTAVYYCARRGWLLHYYAMDYWGQGTLVTVSS VL: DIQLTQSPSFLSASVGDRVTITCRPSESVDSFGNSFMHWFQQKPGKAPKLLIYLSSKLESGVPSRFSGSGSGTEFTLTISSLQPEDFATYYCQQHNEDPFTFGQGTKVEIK
0.000541

Param item: Hz45G10 A2/A4 (antibody, V domains shown) VH: EVQLVESGGGLVQPGGSLRLSCAASGFTFSDYGMHWVRQAPGKGLEWVAYIFSGSSTIYYADTVKGRFTISRDNAKNSLYLQMNSLRAEDTAVYYCARADGRGAMDYWGQGTTVTVSS VL: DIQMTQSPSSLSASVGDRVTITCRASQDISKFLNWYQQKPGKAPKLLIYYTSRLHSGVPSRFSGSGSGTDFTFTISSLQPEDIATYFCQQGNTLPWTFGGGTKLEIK
0.00028

Param item: Hz48A6 B1/C2 (antibody, V domains shown) VH: EVQLVESGGGLMQPGGSLRLSCAASGFTFSSYGMSWVRQAPGKGLEWVATISSGGTYTFYPDSVKGRFTISRDNAKNSLYLQMNSLRAEDTAVYYCARRGWLLHYYAMDYWGQGTSVTVSS VL: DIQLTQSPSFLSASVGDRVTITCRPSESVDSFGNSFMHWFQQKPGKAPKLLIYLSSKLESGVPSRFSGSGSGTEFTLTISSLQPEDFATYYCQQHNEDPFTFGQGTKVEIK
0.000764
